Source listed as patent US9029366B2.

Provide the reported melting point of each item.

Example entries and their recorded answers appear below.
>>> observed_value("O=C(c1ccc(F)cc1)N1CCn2nc(OCc3ccccc3)cc2C1 [test compound]")
"187.7 °C"
>>> observed_value("Cc1cc(COc2cc3n(n2)CCN(C(=O)c2ccc(F)cc2)C3)ccn1 [Example B4]")
"103.4 °C"
>>> observed_value("O=C(c1cccc(Cl)c1)N1CCn2nc(OCc3cccc(F)c3)cc2C1 [Example B98]")
"117 °C"
>>> observed_value("O=C(c1ccc(F)cc1)N1CCn2nc(OCc3ccccc3F)cc2C1 [Example B11]")
"135.2 °C"
>>> observed_value("N#Cc1cc(F)cc(C(=O)N2CCn3nc(OCc4cccc(F)c4)cc3C2)c1 [Example B101]")
"118.2 °C"

List reported melting point for each of these compounds:
1. Cc1ccccc1COc1cc2n(n1)CCN(C(=O)c1ccc(F)cc1)C2 [Example B14]
2. O=C(c1cccc(F)c1)N1CCn2nc(OCc3ccccc3)cc2C1 [Example B2]

Out:
1. 99.3 °C
2. 120.8 °C
